Answer each item with its documented log10 of Ki.
# System tested: Dopamine D2 receptor (Rattus norvegicus, UniProt P61169)
# Sequence (P61169 whole entry): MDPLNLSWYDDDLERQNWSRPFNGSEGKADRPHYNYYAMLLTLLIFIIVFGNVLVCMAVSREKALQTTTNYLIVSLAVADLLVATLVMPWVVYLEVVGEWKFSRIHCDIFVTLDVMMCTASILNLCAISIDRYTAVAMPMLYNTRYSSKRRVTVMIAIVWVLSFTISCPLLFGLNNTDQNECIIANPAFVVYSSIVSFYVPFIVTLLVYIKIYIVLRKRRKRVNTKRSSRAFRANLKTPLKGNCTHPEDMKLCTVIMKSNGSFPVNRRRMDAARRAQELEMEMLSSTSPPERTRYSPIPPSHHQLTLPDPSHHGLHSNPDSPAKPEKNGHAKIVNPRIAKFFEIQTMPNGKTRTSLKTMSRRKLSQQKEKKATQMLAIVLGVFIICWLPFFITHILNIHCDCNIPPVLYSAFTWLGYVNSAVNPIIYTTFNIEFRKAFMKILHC
# Assay text: Dopamine D2 receptor binding assay ([3H]-raclopride)
# Test context: Dopamine D2 receptor binding test, rat corpus striatum membrane, Ki calculated from IC50 by Cheng-Prussoff formula
Scale: decimal log of Ki, Ki in pM.

Answered examples (6):
Lookup: Using the record for COc1cc(N2CCCCC2)cc(C)c1OCCCN1CCN(c2cccc3sccc23)CC1 [Example 1089] , report its log10 of Ki.
Found: 3.00

Lookup: Using the record for NC(=O)c1ccc(OCCCCN2CCN(c3cccc4sccc34)CC2)cc1 [Example 169] , report its log10 of Ki.
Found: 2.95

Lookup: Using the record for CNC(=O)c1cc(C)c(OCCCN2CCN(c3cccc4sccc34)CC2)c(OC)c1 [Example 252] , report its log10 of Ki.
Found: 2.48

Lookup: Using the record for CN(C)C(=O)N1CCC(OCCCN2CCN(c3cccc4sccc34)CC2)CC1 [Example 1110] , report its log10 of Ki.
Found: 3.08

Lookup: Using the record for CCS(=O)(=O)Nc1ccc(OCCCN2CCN(c3cccc4sccc34)CC2)cc1 [Example 345] , report its log10 of Ki.
Found: 3.20

Lookup: Using the record for COc1cc(N(C)C)cc(C)c1OCCCN1CCN(c2cccc3sccc23)CC1.Cl [Example 15, hydrochloride] , report its log10 of Ki.
Found: 2.60

Working through the 7 compounds below one at a time, give log10 of Ki for each.
1. COc1cc(NC(=O)CN)cc(C)c1OCCCN1CCN(c2cccc3sccc23)CC1 [Example 1060]
2. NC(=O)c1cc(OCCCN2CCN(c3cccc4sccc34)CC2)ccn1 [Example 48]
3. CCNC(=O)c1csc(OCCCN2CCN(c3cccc4sccc34)CC2)n1 [Example 73]
4. COC(=O)N1CCN(c2cc(C=O)c(OCCCN3CCN(c4cccc5sccc45)CC3)c(OC)c2)CC1 [Example 1086]
5. NC(=O)c1csc(OCCCN2CCN(c3cccc4sccc34)CC2)n1 [Example 7]
6. COc1cc(N(C)C(C)=O)cc(C)c1OCCCN1CCN(c2cccc3sccc23)CC1.Cl [Example 14, hydrochloride]
7. CC(C)N(CCNC(=O)c1ccc(OCCCN2CCN(c3cccc4sccc34)CC2)cc1)C(C)C [Example 546]

Found:
1: 2.00; 2: 3.36; 3: 3.11; 4: 3.00; 5: 2.90; 6: 2.48; 7: 2.78
